- Tested on: MOLM-13 cells
- experiment notes: MOLM-13 Cell Proliferation Assay (indicator of DHODH inhibition)
- Format: cell-based
- cond: Homo sapiens, 72 Hours of culture, CellTiter-Glo, no uridine
Please respond with reported IC50 for every item in the list.
Expressed in nM, but write only the number.

// lookup IC50 for Fc1cnc(N2CCc3c([nH]c4ccc(Cl)c(F)c34)C2c2ccc(Cl)cc2)nc1 (stereo not drawn)
18.9

// lookup IC50 for Cc1cc(C(F)(F)F)nc(N2CCc3c([nH]c4ccc(Cl)cc34)C2c2ccc(N3CCOCC3)nc2)n1 (stereo not drawn)
1.6

// lookup IC50 for Fc1nc(N2CCOCC2)ccc1C1c2[nH]c3ccc(Cl)cc3c2CCN1c1nccc(C(F)(F)F)n1 (stereo not drawn)
1.6

// lookup IC50 for CC1(C)CN(c2ncc([C@H]3c4[nH]c5ccc(Cl)cc5c4CCN3c3nc(C(F)(F)F)cc(C(F)(F)F)n3)cn2)CCN1
2.8

// lookup IC50 for Cc1ccc([C@H]2c3[nH]c4ccc(Cl)cc4c3CCN2c2ncc(F)cn2)cc1
12.7

// lookup IC50 for Cc1ccc(C2c3[nH]c4ccc(Cl)cc4c3CCN2c2nccc(N(C)C)n2)cc1 (stereo not drawn)
99.2

// lookup IC50 for Cc1ccc([C@H]2c3[nH]c4ccc(Cl)cc4c3CCN2c2nc(C(F)(F)F)nc(C(F)(F)F)n2)c(F)c1F
0.2

// lookup IC50 for N#Cc1ccc(C2c3[nH]c4ccc(Cl)c(F)c4c3CCN2c2ncc(Cl)cn2)cc1 (stereo not drawn)
25.7

// lookup IC50 for N#Cc1ccc(C2c3[nH]c4ccc(Cl)cc4c3CCN2c2nccc(C(F)(F)F)n2)c(F)c1 (stereo not drawn)
2.2

// lookup IC50 for Cc1ccc([C@H]2c3[nH]c4ccc(Cl)cc4c3CCN2c2nc(C(F)(F)F)cc(C(F)(F)F)n2)c(F)c1F
0.3

// lookup IC50 for Cc1ccc([C@H]2c3[nH]c4ccc(Cl)cc4c3CCN2c2ncc(F)c(C#N)n2)c(F)c1F
2.2

// lookup IC50 for Cc1ccc(C2c3[nH]c4ccc(Cl)cc4c3CCN2c2nc(C)nc(C(F)(F)F)n2)cc1 (stereo not drawn)
1.8

// lookup IC50 for Cc1cc(C#N)nc(N2CCc3c([nH]c4cc(F)c(Cl)cc34)C2c2ccc(C)c(F)c2F)n1 (stereo not drawn)
1.1

// lookup IC50 for Cc1ccc(C2c3[nH]c4ccc([N+](=O)[O-])cc4c3CCN2c2nccc(C(F)(F)F)n2)cc1 (stereo not drawn)
3

// lookup IC50 for FC(F)(F)c1ccnc(N2CCc3c([nH]c4ccc(-n5nccn5)cc34)C2c2cnc(N3CCOCC3)nc2)n1 (stereo not drawn)
4.6

----------
- Tested on: MOLM-13 cells
- experiment notes: MOLM-13 Cell Proliferation Assay (indicator of DHODH inhibition)
- Format: cell-based
- cond: Homo sapiens, 72 Hours of culture, CellTiter-Glo, no uridine
pIC50: −log10 of the molar value.
Short version: pIC50 at least 8 is condition met, less is condition not met.

Please indicate if the recorded pIC50 for CN(C)c1ccc(C2c3[nH]c4ccc(Cl)c(F)c4c3CCN2c2nccc(C(F)(F)F)n2)cn1 (stereo not shown) [Compound 177] meets or exceeds 8.
condition met

Please indicate if the recorded pIC50 for Cc1ccc(C2c3[nH]c4ccc(-n5nccn5)cc4c3CCN2c2nccc(C(F)(F)F)n2)c(F)c1F (stereo not shown) [Compound 502] meets or exceeds 8.
condition met

Please indicate if the recorded pIC50 for Cc1nc(C)nc(N2CCc3c([nH]c4ccc(N(C)C)cc34)C2c2cnc(N3CCOCC3)nc2)n1 (stereo not shown) [Compound 331] meets or exceeds 8.
condition not met

Please indicate if the recorded pIC50 for Cc1ccc([C@H]2c3[nH]c4ccc(Br)cc4c3CCN2c2nc(C(F)(F)F)nc(C(F)(F)F)n2)c(F)c1F [Compound 523] meets or exceeds 8.
condition met

Please indicate if the recorded pIC50 for CN(C)c1ccc(C2c3[nH]c4ccc(Cl)c(F)c4c3CCN2c2nccc(C(F)(F)F)n2)c(F)n1 (stereo not shown) [Compound 210] meets or exceeds 8.
condition met

Please indicate if the recorded pIC50 for Cc1nc(N2CCc3c([nH]c4cc(F)c(Cl)cc34)C2c2ccc(F)cc2)ncc1F (stereo not shown) [Compound 105] meets or exceeds 8.
condition not met
